molecular target: T1, hPDL1(19-239)-TVMV-His (human, UniProt Q9NZQ7 19-239); experiment: HTRF competition, PD-1-Ig binding to PD-L1-His
T1 construct: The text says amino acids 18-239, the construct name says 19-239; Expressed in HEK293T cells; Used at 10 nM final in the HTRF assay; also called PD-L1-His; PD-L1-TVMV-His
T1 sequence (Q9NZQ7 other isoform, or with tags, fused parts or gaps limits assumed): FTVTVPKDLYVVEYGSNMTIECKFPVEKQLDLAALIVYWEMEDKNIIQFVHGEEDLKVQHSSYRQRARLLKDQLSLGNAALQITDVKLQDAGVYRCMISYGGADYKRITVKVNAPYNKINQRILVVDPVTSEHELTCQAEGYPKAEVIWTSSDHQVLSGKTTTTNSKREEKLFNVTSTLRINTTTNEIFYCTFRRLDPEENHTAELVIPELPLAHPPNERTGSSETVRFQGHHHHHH
Positions of bridges follow the written chain, without caps; N, C: chain ends. Non-standard residues stand in square brackets, D forms with d. Oic = O=C(O)[C@@H]1C[C@@H]2CCCC[C@@H]2N1; NMeNle = CCCC[C@H](NC)C(=O)O; Pro(4-Ph) = 4-phenylproline; NMeA = CN[C@@H](C)C(=O)O; Sar = CNCC(=O)O
Kindly state IC50 for each of the entries shown.
The figure you give is taken to be in nM; do not add the unit.

Requested read-out: IC50. Entry: {CH2CO}-F[NMeA]N[Pro(4-Ph)]HL[Sar]WSW[NMeNle][NMeNle]RCG-NH2 (thioether N-14) [Compound No. 46]
873

Requested read-out: IC50. Entry: {CH2CO}-F[NMeA]N[Oic]HL[Sar]WSW[NMeNle][NMeNle]RCG-NH2 (thioether N-14; SMILES CCCC[C@H]1C(=O)N(C)[C@@H](CCCC)C(=O)N[C@@H](CCCNC(=N)N)C(=O)N[C@H](C(=O)NCC(N)=O)CSCC(=O)N[C@@H](Cc2ccccc2)C(=O)N(C)[C@@H](C)C(=O)N[C@@H](CC(N)=O)C(=O)N2[C@@H](C[C@@H]3CCCC[C@@H]32)C(=O)N[C@@H](Cc2c[nH]cn2)C(=O)N[C@@H](CC(C)C)C(=O)N(C)CC(=O)N[C@@H](Cc2c[nH]c3ccccc23)C(=O)N[C@@H](CO)C(=O)N[C@@H](Cc2c[nH]c3ccccc23)C(=O)N1C) [Compound No. 45]
105
